assay: Cytotoxicity against HEK293T cells at 50 uM after 72 hrs by MTT assay
Format: cell-based, HEK-293T
assayConditions: human
Kindly return MET if reported inhibition at 72 h, 50 µM is no lower than 80%; return NOT MET if it is lower.

{"columns": ["molecule", "category"],
 "data": [
  ["O=C(Cn1c(-c2ccccc2)cc(-c2ccccc2)c1-c1ccco1)NCCc1c[nH]c2ccccc12", "NOT MET"],
  ["O=C(Cn1c(-c2ccccc2)cc(-c2ccccc2)c1-c1ccc(Br)cc1)Nc1nc2ccccc2s1", "MET"],
  ["O=C(Cn1c(-c2ccccc2)cc(-c2ccccc2)c1-c1ccco1)Nc1nc2ccccc2s1", "MET"],
  ["O=C(Cn1c(-c2ccccc2)cc(-c2cccc3ccccc23)c1-c1ccco1)Nc1nc2ccccc2s1", "NOT MET"],
  ["CCc1nnc(NC(=O)Cn2c(-c3ccc4ccccc4c3)cc(-c3ccccc3)c2-c2ccco2)s1", "MET"]
]}

Q: Does inhibition at 72 h, 50 µM meet or surpass 80% for O=C(O)Cn1c(-c2ccccc2)cc(-c2cccc3ccccc23)c1-c1ccco1 ?
A: NOT MET

Q: Does inhibition at 72 h, 50 µM meet or surpass 80% for CCc1nnc(NC(=O)Cn2c(-c3ccccc3)cc(-c3ccco3)c2-c2ccco2)s1 ?
A: MET
